Hey, just so you know, these numbers are from patent US20220324939A1.

The following binders are shown together with reported % tetramer in Ag+ gate (MAGE-A4) values.
# targetSystem: T1, soluble HLA-A2 MAGE-A4 (…) tetramer (human)
# T1 construct: Bought tetramer reagent; also called MAGE-A4/HLA tetramer reagent; HLA-A02:01 MAGE-A4 tetramer
# methodSummary: flow cytometry, HLA-A2 MAGE-A4 (…) tetramer staining of CHO cells transfected with the TCR

binder	% tetramer in Ag+ gate (MAGE-A4) [%]
PN45557 (TCR, V domains shown, full-length chains on transfected CHO cells; also called TCR No. 52) V domain 1: AQKITQTQPGMFVQEKEAVTLDCTYDTSDPSYGLFWYKQPSSGEMIFLIYQGSYDQQNATEGRYSLNFQKARKSANLVISASQLGDSAMYFCAMREGPGSGNTGKLIFGQGTTLQVKP V domain 2: NAGVTQTPKFRILKIGQSMTLQCAQDMNHNYMYWYRQDPGMGLKLIYYSVGAGITDKGEVPNGYNVSRSTTEYFPLRLELAAPSQTSVYFCASSYSEWQNYGYTFGSGTRLTVV	94.7
PN45515 (TCR, V domains shown, stained with anti-mouse TCR constant region H57-597; full-length chains on transfected CHO cells; also called TCR No. 39) V domain 1: DAKTTQPPSMDCAEGRAANLPCNHSTISGNEYVYWYRQIHSQGPQYIIHGLKNNETNEMASLIITEDRKSSTLILPHATLRDTAVYYCIVRPYNAGNNRKLIWGLGTSLAVNP V domain 2: DVKVTQSSRYLVKRTGEKVFLECVQDMDHENMFWYRQDPGLGLRLIYFSYDVKMKEKGDIPEGYSVSREKKERFSLILESASTNQTSMYLCASSFGGGYYGYTFGSGTRLTVV	11.5
PN45418 (TCR, V domains shown, stained with anti-mouse TCR constant region H57-597; full-length chains on transfected CHO cells; also called TCR No. 46) V domain 1: EDQVTQSPEALRLQEGESSSLNCSYTVSGLRGLFWYRQDPGKGPEFLFTLYSAGEEKEKERLKATLTKKESFLHITAPKPEDSATYLCAVQPSYSGAGSYQLTFGKGTKLSVIP V domain 2: EAQVTQNPRYLITVTGKKLTVTCSQNMNHEYMSWYRQDPGLGLRQIYYSMNVEVTDKGDVPEGYKVSRKEKRNFPLILESPSPNQTSLYFCASSPGTGGFSPLHFGNGTRLTVT	12.3
